molecular target: DN-IV quality control recombinant protein (produced by the company) (dengue virus); assay: BLI, antibody on AMC sensor
Kindly supply the reported koff values for the records listed here.
One number for each entry, in s⁻¹.

Some solved entries appear below for comparison.
Mutation 1-26 (antibody, V domains shown) VH: EVQLQQPGPELVKPGASVKMSCKASGYTFTSYVIHWVRQKPGQGLEWIGYMNPYNDGIKYNEKFIGKAILTSDKSSSTAYMQLSSLTSEDSAVYYCTREGLFYVMDYWGQGTSVTVSS VL: QIVLTQSPAIMSASPGEKVTMTCSATSSLSYMHWYQQKSGTSPKRWIYDTSKLASGVPVRFSGSGSGTSYSLTISSMEAEDAATYFCQWWRSDLPTFGAGTKLELKR = 0.000152
Mutation 1-39 (antibody, V domains shown) VH: EVQLQQPGPELVKPGASVKMSCKASGYTFTSTVIHWVRQKPGQGLEWIGYMNPYNDGIKYNEKFIGKAILTSDKSSSTAYMQLSSLTSEDSAVYYCTREGLFYVFDYWGQGTSVTVSS VL: QIVLTQSPAIMSASPGEKVTMTCSATSSLSYMHWYQQKSGTSPKRWIYDSSKLASGVPVRFSGSGSGTSYSLTISSMEAEDAATYFCQQWRSDLPTFGAGTKLELKR = 0.000186

Attention now turns to another entry.
input: Given Mutation 1-49 (antibody, V domains shown) VH: EVQLQQPGPELVKPGASVKMSCKASGYTFTSSVIHWVRQKPGQGLEWIGYMNPYNDGIKYNEKFIGKAILTSDKSSSTAYMQLSSLTSEDSAVYYCTREGLFYVFDYWGQGTSVTVSS VL: QIVLTQSPAIMSASPGEKVTMTCSATSSVSYMHWYQQKSGTSPKRWIYDTSKLASGVPVRFSGSGSGTSYSLTISSMEAEDAATYFCQQWRSDLPTFGAGTKLELKR , state its recorded koff.
output: 0.000299
